src = ChEMBL document CHEMBL3098065

assay.info: Kinetic aqueous solubility of the compound at pH 7.4 after 16 hrs by shake flask method
Format: physicochemical
assay.conditions: read-out: Kinetic_solubility
property.name: solubility kinetic at 16 h (µM)

smi: N=C(N)c1ccc(Oc2cc(C(=O)N[C@H]3CC[C@H](N)CC3)cc(Oc3ccc(C(=N)N)cc3)n2)cc1
solubility kinetic at 16 h (µM): 196

smi: N=C(N)c1ccc(Oc2ccc(NS(=O)(=O)c3ccc(F)cc3)c(Oc3ccc(C(=N)N)cc3)n2)cc1
solubility kinetic at 16 h (µM): 194

smi: N=C(N)c1ccc(Oc2ccc(NS(=O)(=O)c3ccc4ccccc4c3)c(Oc3ccc(C(=N)N)cc3)n2)cc1
solubility kinetic at 16 h (µM): 191

====

assay.info: Metabolic stability in mouse liver microsomes assessed as compound remaining at 1 uM after 20 mins by LC-MS/MS analysis
Format: ADME, Microsome
assay.conditions: read-out: Stability
property.name: remaining at 20 min, 1 µM (%)

smi: N=C(N)c1ccc(Oc2cc(C(=O)N[C@H]3CC[C@H](N)CC3)cc(Oc3ccc(C(=N)N)cc3)n2)cc1
property.name: remaining at 20 min, 1 µM
reported: 100
--
smi: N=C(N)c1ccc(Oc2ccc(NS(=O)(=O)c3ccc(F)cc3)c(Oc3ccc(C(=N)N)cc3)n2)cc1
property.name: remaining at 20 min, 1 µM
reported: 89
--
smi: N=C(N)c1ccc(Oc2ccc(NS(=O)(=O)c3ccc4ccccc4c3)c(Oc3ccc(C(=N)N)cc3)n2)cc1
property.name: remaining at 20 min, 1 µM
reported: 76.4

====

target: Trypsin (Homo sapiens, UniProt P07477+P07478+P35030)
assay.info: Inhibition of trypsin (unknown origin) by fluorescence assay
Type: protein assay
property.name: Ki (nM)

smi: N=C(N)c1ccc(Oc2cccc(Oc3ccc(C(=N)N)cc3)n2)cc1
reported: 2800
--
smi: N=C(N)c1ccc(Oc2ccc(C(=O)N[C@H]3CC[C@H](N)CC3)c(Oc3ccc(C(=N)N)cc3)n2)cc1
reported: 2000
--
smi: N=C(N)c1ccc(Oc2ccc(C(=O)N3CCC(CCN)CC3)c(Oc3ccc(C(=N)N)cc3)n2)cc1
reported: 3600
--
smi: N=C(N)c1ccc(Oc2cc(C(=O)N3CCC(CCN)CC3)cc(Oc3ccc(C(=N)N)cc3)n2)cc1
reported: 2200

1 = N=C(N)c1ccc(Oc2ccc(C(=O)NCCCN)c(Oc3ccc(C(=N)N)cc3)n2)cc1
2 = N=C(N)c1ccc(Oc2ccc(NS(=O)(=O)c3ccc4ccccc4c3)c(Oc3ccc(C(=N)N)cc3)n2)cc1
3 = N=C(N)c1ccc(Oc2cc(C(=O)N[C@H]3CC[C@H](N)CC3)cc(Oc3ccc(C(=N)N)cc3)n2)cc1
Exercise: Order the records so the highest Ki appears first and the lowest last. # list labels per requested ordering
Solution: 3, 2, 1
(3: 2400 nM, 2: 1300 nM, 1: 300 nM)

a = N=C(N)c1ccc(Oc2ccc(NS(=O)(=O)c3ccc(F)cc3)c(Oc3ccc(C(=N)N)cc3)n2)cc1
b = N=C(N)c1ccc(Oc2ccc(N)c(Oc3ccc(C(=N)N)cc3)n2)cc1
Exercise: Out of a and b , name the one with the higher Ki. Give the chosen item's label as your response.
Solution: b
(b: 5500 nM, a: 1400 nM)

====

Consider the following pKi values measured on Coagulation factor X (Homo sapiens, UniProt P00742).
Sequence (P00742 41-179 limits assumed): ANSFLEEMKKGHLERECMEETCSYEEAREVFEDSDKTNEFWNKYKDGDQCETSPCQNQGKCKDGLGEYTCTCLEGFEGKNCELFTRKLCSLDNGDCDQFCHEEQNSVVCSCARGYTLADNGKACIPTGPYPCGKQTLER
Sequence (P00742 235-488 limits assumed): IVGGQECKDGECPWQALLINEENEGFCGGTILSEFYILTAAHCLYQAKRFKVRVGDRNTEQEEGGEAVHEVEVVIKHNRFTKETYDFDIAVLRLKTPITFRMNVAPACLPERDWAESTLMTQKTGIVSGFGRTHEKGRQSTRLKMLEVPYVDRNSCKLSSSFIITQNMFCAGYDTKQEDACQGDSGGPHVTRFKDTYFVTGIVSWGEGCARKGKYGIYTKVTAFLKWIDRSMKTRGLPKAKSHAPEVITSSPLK
pKi: −log10 of the molar value.
property.name: pKi

smi: N=C(N)c1ccc(Oc2cc(C(=O)NC3CCN(CCCN)CC3)cc(Oc3ccc(C(=N)N)cc3)n2)cc1
pKi: 7.00

1 = N=C(N)c1ccc(Oc2cc(C(=O)N3CCC(CCN)CC3)cc(Oc3ccc(C(=N)N)cc3)n2)cc1
2 = N=C(N)c1ccc(Oc2ccc(N)c(Oc3ccc(C(=N)N)cc3)n2)cc1
Exercise: Problem: Given the entries 1 and 2 , determine which has the lower reported pKi. Identify your pick by its label.
Solution: 2

====

// each record: one item and its pKi for Suppressor of tumorigenicity 14 protein (Homo sapiens, UniProt Q9Y5Y6)
pKi: −log10 of the molar value.
property.name: pKi

smi: N=C(N)c1ccc(Oc2ccc(C(=O)NCCCN)c(Oc3ccc(C(=N)N)cc3)n2)cc1
pKi: 6.40

1 = N=C(N)c1ccc(Oc2cc(C(=O)NC3CCN(CCCN)CC3)cc(Oc3ccc(C(=N)N)cc3)n2)cc1
2 = N=C(N)c1ccc(Oc2ccc(C(=O)N3CCC(CCN)CC3)c(Oc3ccc(C(=N)N)cc3)n2)cc1
Exercise: Compare 1 and 2 by numeric pKi and name the larger one. Give the label of your selection.
Solution: 1
